Listed here: items and their measured Co Increasing rate (%).
System: anesthetized dog
ASSAY PROCEDURE: anesthetized dog, cardiac contractility and cardiac output
Format: in vivo
CONDITIONS USED: Dosage 100 µg/kg i.v., blood flow rate in the aorta as index of cardiac output
Field format: number, assumed %, no unit text.

**Q:** Query (compound): COc1cc(C2=NNC(=O)CC2)ccc1OCC(=O)N1CCN(Cc2ccc(OC)c(OC)c2OC)CC1 ; field requested: Co Increasing rate (%)
**A:** 13.3

**Q:** Next up: COc1ccc(CN2CCN(C(=O)COc3ccc(C4=NNC(=O)CC4)cc3)CC2)cc1
**A:** 28.9

**Q:** Next up: COc1ccc(CN2CCN(C(=O)COc3ccc(C4=NNC(=O)CC4)cc3)CC2)c(OC)c1OC
**A:** 16.3

**Q:** Next up: COc1ccc(N2CCN(C(=O)C(C)Oc3ccc(C4=NNC(=O)CC4)cc3OC)CC2)cc1 (stereo not shown)
**A:** 19.6
